Every entry's value here was drawn from paper PMC9021956.

inhibition at 15 µM by entry:
- tested_target: HLA-A1101 (Homo sapiens, UniProt P04439, A114D/D185E/E176A/F33Y/L180Q/S129P/T187R)
- Construct: expressed in transfected cells; host or cells: HMy2.CIR
- experimental_details: cell-based
- Format: binding
- test_context: HLA-A1101 HMy2.CIR cells; competitor peptide 15μM; 24 hours; flow cytometry; read-out: 15μM Inhibition (%)
Residues, ends and D or L forms follow the SMILES beside them.
I only need the number, in %, no unit after it.

Field: example entries. Status: answers known.
CC(C)C[C@H](NC(=O)CN)C(=O)N[C@@H](CO)C(=O)N1CCC[C@H]1C(=O)N[C@H](C(=O)N[C@H](C(=O)N[C@@H](Cc1c[nH]c2ccccc12)C(=O)N[C@@H](CC(C)C)C(=O)N[C@@H](CO)C(=O)N[C@H](C(=O)O)C(C)C)C(C)C)[C@@H](C)O [Epitope P8] :: 11.5
CC(C)C[C@H](NC(=O)[C@H](C)NC(=O)[C@H](CO)NC(=O)[C@H](C)NC(=O)[C@@H](NC(=O)[C@H](CC(=O)O)NC(=O)[C@H](CC(C)C)NC(=O)[C@@H](N)CC(C)C)[C@@H](C)O)C(=O)N[C@@H](Cc1ccc(O)cc1)C(=O)O [Epitope P111] :: 14.8
CC[C@H](C)[C@H](NC(=O)[C@H](CCC(N)=O)NC(=O)[C@H](Cc1c[nH]cn1)NC(=O)[C@H](C)NC(=O)[C@H](CC(N)=O)NC(=O)[C@@H](NC(=O)[C@@H](N)[C@@H](C)O)C(C)C)C(=O)N[C@@H](CC(C)C)C(=O)N1CCC[C@H]1C(=O)N[C@@H](CCCCN)C(=O)O [Epitope P17] (H-TVNAHQILPK-OH; N-terminus and C-terminus assumed) :: 84.4
CC(C)C[C@H](NC(=O)[C@H](CCC(=O)O)NC(=O)[C@H](CCC(=O)O)NC(=O)[C@H](Cc1c[nH]c2ccccc12)NC(=O)[C@H](CC(=O)O)NC(=O)[C@H](CCCCN)NC(=O)[C@H](Cc1ccccc1)NC(=O)[C@H](CC(C)C)NC(=O)[C@@H](N)CS)C(=O)O [Epitope P12] (H-CLFKDWEEL-OH; N-terminus and C-terminus assumed) :: 22.6

We next turn to a different compound, shown below.
Value of measured inhibition at 15 µM for the entry CC(C)[C@H](N)C(=O)N[C@@H](CS)C(=O)N[C@@H](C)C(=O)N1CCC[C@H]1C(=O)N[C@@H](C)C(=O)N1CCC[C@H]1C(=O)N[C@@H](CS)C(=O)N[C@@H](CC(N)=O)C(=O)N[C@@H](Cc1ccccc1)C(=O)O [Epitope P26] (H-VCAPAPCNF-OH; N-terminus and C-terminus assumed) : 22.4
